TARGET OF ASSAY: UniProtKB P00352
METHOD SUMMARY: ALDH1A1 enzymatic assay (in vitro)
Assay type: biochemical
CONDITION NOTES: ALDH1A1 enzyme 20 nM, NAD+ 1 mM, propionaldehyde 80 μM; read-out: ALDH1A1 IC50
pIC50: −log10 of the molar value. Counter-ions that a name gives are not always drawn.
# Lookup of reported pIC50 keyed by entry

- MOLECULE: "COc1ccc2ncc(C(=O)N3CCN(C(=O)C4CC4)CC3)c(-c3cnn(C)c3)c2c1"
  TARGET OF ASSAY: "UniProtKB P00352"
  pIC50: "< 5.00"
- MOLECULE: "CS(=O)(=O)C1CCN(C(=O)c2cnc3ccc(Cl)cc3c2N2CCC(C#N)(c3ccccc3)CC2)CC1"
  TARGET OF ASSAY: "UniProtKB P00352"
  pIC50: "> 6.30"
- MOLECULE: "CN(C)C(=O)N1CCN(C(=O)c2cnc3cc(F)c(F)cc3c2N2CCC3(CC2)OCCO3)CC1"
  TARGET OF ASSAY: "UniProtKB P00352"
  pIC50: "> 6.30"
- MOLECULE: "CCN(CC)C(=O)N1CCN(C(=O)c2cnc3cc(F)c(F)cc3c2N2CCC3(CC2)OCCO3)CC1"
  TARGET OF ASSAY: "UniProtKB P00352"
  pIC50: "> 6.30"
- MOLECULE: "CNC(=O)Cn1cc(NC(=O)c2cnc3ccc(F)cc3c2-c2ccc(C3(C#N)CC3)cc2)cn1"
  TARGET OF ASSAY: "UniProtKB P00352"
  pIC50: "> 6.30"
- MOLECULE: "C[C@@H]1CN(C(=O)c2cnc3ccc(F)cc3c2N2CCC(C)(C#N)CC2)C[C@H](C)N1C(=O)C1CC1"
  TARGET OF ASSAY: "UniProtKB P00352"
  pIC50: "5.00 to 6.00"
- MOLECULE: "COc1ccc2ncc(C(=O)NC3CCN(C)CC3)c(N3CCC4(CC3)OCCO4)c2c1 [Example 16, TFA]"
  TARGET OF ASSAY: "UniProtKB P00352"
  pIC50: "5.00 to 6.00"
- MOLECULE: "COc1c(F)cc2c(N3CCC(C)(C#N)CC3)c(C(=O)N3CCN(S(C)(=O)=O)CC3)cnc2c1F"
  TARGET OF ASSAY: "UniProtKB P00352"
  pIC50: "> 6.30"
- MOLECULE: "CC(C)(C#N)c1ccc(-c2c(C(=O)N3CCN(S(C)(=O)=O)CC3)ccc3ccccc23)cc1"
  TARGET OF ASSAY: "UniProtKB P00352"
  pIC50: "> 6.30"
- MOLECULE: "O=C(c1cnc2ccc(F)cc2c1N1CCC2(CCOC2=O)CC1)N1CCN(C(=O)C2CC2)CC1"
  TARGET OF ASSAY: "UniProtKB P00352"
  pIC50: "> 6.30"

----------
TARGET OF ASSAY: UniProtKB P00352
Sequence (P00352 1-501): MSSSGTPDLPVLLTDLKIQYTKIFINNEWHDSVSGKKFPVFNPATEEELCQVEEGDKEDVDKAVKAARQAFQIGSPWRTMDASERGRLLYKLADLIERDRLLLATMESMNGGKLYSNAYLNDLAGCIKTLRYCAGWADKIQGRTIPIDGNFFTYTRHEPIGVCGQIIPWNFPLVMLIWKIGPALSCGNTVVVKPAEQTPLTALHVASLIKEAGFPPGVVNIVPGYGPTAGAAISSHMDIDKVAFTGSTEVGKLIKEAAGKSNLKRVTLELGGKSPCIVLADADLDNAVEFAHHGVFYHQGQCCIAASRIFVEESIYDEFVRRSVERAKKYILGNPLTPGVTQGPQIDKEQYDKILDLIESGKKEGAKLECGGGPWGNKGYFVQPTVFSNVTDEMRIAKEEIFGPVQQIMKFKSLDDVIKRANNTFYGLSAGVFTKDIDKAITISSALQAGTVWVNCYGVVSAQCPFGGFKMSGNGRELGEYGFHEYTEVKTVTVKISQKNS
METHOD SUMMARY: ALDH1A1 enzymatic assay (in vitro)
Format: biochemical
CONDITION NOTES: ALDH1A1 enzyme 20 nM, NAD+ 1 mM, propionaldehyde 80 μM; read-out: ALDH1A1 IC50
Structures can show the parent of a compound that is named as a salt.

- COMPOUND: "COc1ccc2ncc(C(=O)N3CCN(C(=O)C4CC4)CC3)c(N3CCN(c4ccncc4)CC3)c2c1 [Example 20, TFA]"
  IC50: "> 10 µM"
- COMPOUND: "CS(=O)(=O)N1CCN(C(=O)c2cnc3ccc(F)cc3c2-c2ccc(/C(C#N)=C/C3CC3)cc2)CC1"
  IC50: "< 0.5 µM"
- COMPOUND: "COc1ccc2ncc(C(=O)N3CCN(C(=O)C4CC4)CC3)c(-n3cc(C)cn3)c2c1"
  IC50: "> 10 µM"
- COMPOUND: "COc1ccc2c(N3CCC(C)(C#N)CC3)c(C(=O)N3CCN(C(=O)C(C)C)CC3)cnc2c1"
  IC50: "< 0.5 µM"
- COMPOUND: "CCS(=O)(=O)N1CCN(C(=O)c2cnc3ccc(F)cc3c2N2CCC3(CC2)OCCO3)CC1"
  IC50: "< 0.5 µM"
